Tested on: P. falciparum stage V gametocytes
Design: BacTiter-Glo ATP luminescence viability of purified stage V gametocytes in 384-well plates, per cent inhibition versus DMSO
test.context: 48 h, 5 µM; inhibitor
Hit rate of the full screen: of about 13,000 compounds, about 3,200 (25%) showed an effect of 50% or more. This is one part of the list.
observable: % Inhibition (%)
All answers are understood in %, so give the number only.

Guide cases for % Inhibition, answers given:
CCCN(Cc1ccc(C)cc1)Cc1cc(=O)c2cc(Cl)ccc2[nH]1 = 52.71
O=C(CCCCCNC(=O)c1ccc(O)c(-c2ccc(Cl)c(Cl)c2)c1)NCCN1CCOCC1 = 9.445
O=C(/C=C/c1ccc(Cl)cc1)NCCCCCN1CCC(C(=O)Nc2cccc(Cl)c2)CC1 = -9.305
O=C(/C=C/c1ccc(Cl)cc1)NCCCCCN1CCC(C(=O)Nc2ccc(Cl)c(Cl)c2)CC1 = -40.47
CCOc1cc(Cc2cnc(N)nc2N)cc(OCC)c1OCC = -8.766
O=C(NC1CCCCN(Cc2ccc3c(c2)OCCO3)C1)c1cc(-c2ccccc2F)cs1 (centres unmarked) = -15.69

Fill in the blank: the reported % Inhibition of `O=C(N[C@@H](CC1CCCCC1)C(=O)NCc1cccc(C(F)(F)F)c1)c1ccc(O)c(-c2ccc(Cl)c(Cl)c2)c1` is ____.
10.47

Return reported % Inhibition; argument: `N=C(N)c1cc(Br)cc(NC(=O)Nc2cc(Br)cc(C(=N)N)c2)c1`
-21.96

----------
Tested on: P. falciparum stage V gametocytes
Set-up: BacTiter-Glo ATP luminescence viability of purified stage V gametocytes in 384-well plates, per cent inhibition versus DMSO
test.context: 48 h, 5 µM; inhibitor
About 3,200 (25%) of roughly 13,000 compounds showed an effect of 50% or more. This is one part of the list.
Each entry gets False if its % Inhibition stays under 30%, and True if its % Inhibition is 30% or above.

See these solved cases before continuing.
O=C(Nc1ccc2c(c1)CCN(C1CCC1)CC2)c1ccc(-n2ccnc2)cn1 = False
COCCNCc1cccc(-c2ccc3c(Nc4cc(O)c(Cl)cc4F)ccnc3c2)c1 = True
Fc1ccc(Nc2ccnc3cc(I)ccc23)c(Cl)c1 = False
COc1ccc(-c2cnc3[nH]cc(-c4ccc(CCC(=O)O)cc4)c3c2)cn1 = True
Fc1ccc(Nc2ccnc3cc(-c4cccc(CN5CCCCC5)c4)ccc23)c(Cl)c1 = False
CN(C)CCNCc1cccc(-c2ccc3c(Nc4ccc(F)cc4Cl)ccnc3c2)c1 = True
Cc1[nH]nc2cc(Nc3nccc(Nc4ccc(Oc5ccccc5)cc4)n3)ccc12 = True

Next, consider the following molecule.
Tell me whether % Inhibition is at least 30% here: `N#Cc1ccc(-n2cc(C(=O)Nc3ccc4c(c3)CCN(C3CCC3)CC4)c(C(F)(F)F)n2)cc1`
False

----------
Below is a list of entries, each paired with its recorded % Inhibition value.
Tested on: P. falciparum stage V gametocytes
Set-up: BacTiter-Glo ATP luminescence viability of purified stage V gametocytes in 384-well plates, per cent inhibition versus DMSO
test.context: 48 h, 5 µM; inhibitor
Out of some 13,000 compounds screened, about 3,200 (25%) showed an effect of 50% or more. This is one part of the list.
Give the value in % but do not write % after it.

CN(C)CCCN(C)c1cccc2c1nc(-c1cccnc1)n2CCNCc1ccccc1 [TCMDC-133440] = 88.37
CN(C)CCNC(=O)[C@H](Cc1ccccc1)NC(=O)c1ccc(O)c(-c2ccc(Cl)c(Cl)c2)c1 [TCMDC-140864] = 22.21
CN(CCc1ccccn1)c1cccc2c1nc(-c1cccnc1)n2CCNCc1ccccc1 [TCMDC-133439] = -10.58
COc1cc(NC(=O)c2nn(CCCN3CCC(N4CCCC4)CC3)cc2-c2ccc(Cl)c(Cl)c2)cc(OC)c1OC [TCMDC-141725] = 29.9
CCc1c(CCNCCCCCCNCCc2ccc(OC)c(OC)c2CC)ccc(OC)c1OC [TCMDC-132047] = 111.8
COc1cc(C(=O)NCc2nn(CCN3CCC(N4CCCC4)CC3)cc2-c2ccc(Cl)c(Cl)c2)cc(OC)c1OC [TCMDC-141966] = 24.89

Field request: % Inhibition | item: O=C(NCc1ccccc1)NC(CCCN1CCC(Oc2cccc(Cl)c2)CC1)c1ccc(Cl)c(Cl)c1 (centres unmarked) [TCMDC-141903]
-17.97

Recorded % Inhibition of CCc1c(CCNCCCCCCNCCc2ccc(Br)cc2)ccc(OC)c1OC [TCMDC-132045] , please.
110

Requested read-out: % Inhibition. Entry: CN(Cc1ccccc1)C(=O)c1nn(CCCN2CCC(N3CCCC3)CC2)cc1-c1ccc(Cl)c(Cl)c1 [TCMDC-141730]
45.58

----------
% Inhibition values by entry
Tested on: P. falciparum stage V gametocytes
Design: BacTiter-Glo ATP luminescence viability of purified stage V gametocytes in 384-well plates, per cent inhibition versus DMSO
test.context: 48 h, 5 µM; inhibitor
About 3,200 (25%) of roughly 13,000 compounds showed an effect of 50% or more. The list shows a part of the results.
Express the result in % but write the number alone.

Would you please look over these solved cases?
COc1cc(NC(=O)/C=C/c2ccc(-c3ccccc3)cc2)ccc1OCCN(C(C)C)C(C)C = -1.594
CCOc1cccc(C(=O)Nc2cccc(CN3CCCN(Cc4ccc(O)cc4)CC3)c2)c1 = 17.88
Cc1nc(-c2ccc(-c3ccc(C(=O)Nc4ccc(C(C)C)c(OCCN(C)C)c4)cc3)c(C)c2)no1 = -34.94
Cl.Nc1ccnc2ccc(OCCCCCCc3ccccc3)cc12 = -2.454
CCCCCCCN1CCC(NC(=O)Nc2ccnc3ccc(OC)cc23)C(C(=O)OCC)C1.O=C(O)C(=O)O (stereo not shown) = -3.335
COc1ccc(CN2CCC2=O)c(OC)c1 = 45.15

Now for a further compound.
Entry `COc1ccc(NC(=O)/C=C/c2ccc(-c3ccc(-c4noc(C)n4)cc3)cc2)cc1OCCN(C)C` has what % Inhibition?
62.93

----------
Test system: P. falciparum stage V gametocytes
Design: BacTiter-Glo ATP luminescence viability of purified stage V gametocytes in 384-well plates, per cent inhibition versus DMSO
test.context: 48 h, 5 µM; inhibitor
Among all 13,000 compounds or so, about 3,200 (25%) showed an effect of 50% or more. The list shows a part of the results.
observable: % Inhibition (%)
Number in %, nothing else.

// below: answered compounds
O=C(Nc1cccc(-c2cccc(CN3CCCC3)c2)c1)c1ccc(Cl)cc1 = 19.28
O=C(/C=C/c1ccc(Cl)c(Cl)c1)NCCCCCN1CC[C@H](NC(=O)c2sc3ccccc3c2Cl)C1 = 48.14
CN1CCC(NCc2ccc(-c3ccc(S(=O)(=O)NC4CCC4)s3)cc2)CC1 = 57.53
CCCCc1ccc2[nH]cc(C3=CCN(C)CC3)c2c1Br = 18.47
COc1cc(OC)cc(C(=O)Nc2cccc(-c3cn4ccc(C)cc4n3)c2)c1 = 4
Cc1ccn2cc(-c3ccc(NC(=O)c4ccc(Br)o4)cc3)nc2c1 = 106.8
CCCCCCNC(=O)C1Cc2c([nH]c3ccc(C)cc23)C2(CCN(CCc3ccccc3)CC2)N1 (centres unmarked) = -44.59

Fill blank: measured % Inhibition of the compound `CN1CCC(NCc2ccc(-c3ccc(S(=O)(=O)NCc4ccccc4)s3)cc2)CC1` is ____.
68.61

----------
Test system: P. falciparum stage V gametocytes
Design: BacTiter-Glo ATP luminescence viability of purified stage V gametocytes in 384-well plates, per cent inhibition versus DMSO
test.context: 48 h, 5 µM; inhibitor
Out of some 13,000 compounds screened, about 3,200 (25%) showed an effect of 50% or more. Some of the results follow.
Classify as follows. Reported % Inhibition greater than or equal to 30%: 1 (yes). Reported % Inhibition below: 0 (no).

Cc1cc(NN=Cc2ccccc2F)c2ccccc2n1 = 0 (no)

Given the entry `COc1c(C2CCN(CCCCNC(=O)c3cccc(-c4ccc(C(F)(F)F)cc4)c3)CC2)ccc2c1CCCC2` , answer whether its % Inhibition meets or surpasses 30%.
1 (yes)

Hi, just wondering whether `Cc1nc(-c2ccc(C#N)cc2)sc1C(=O)NCCCCN1CCC(c2ccc3c(c2OCCO)CCCC3)CC1` shows % Inhibition of 30% or higher.
0 (no)

Would you say `NC(=O)COc1c(C2CCN(CCCCNC(=O)c3ccc(-c4ccc(Cl)cc4)c(O)c3)CC2)ccc2c1CCCC2` shows % Inhibition at minimum 30%?
1 (yes)

Does the compound O=C(NCC1CCC(C(=O)NCc2cccc3ccccc23)CC1)c1ccc(O)c(-c2ccc(Cl)c(Cl)c2)c1 (stereo not shown) have recorded % Inhibition that is 30% or more?
0 (no)

Threshold query (% Inhibition >= 30%) on `Cc1cc(NN=Cc2ccccc2F)c2cc(C(F)(F)F)ccc2n1`
0 (no)

Tell me whether % Inhibition is at least 30% here: `Cc1ccc2nc(C)cc(NN=Cc3ccccc3Cl)c2c1`
0 (no)

Dear colleague, could you confirm whether `COc1c(C2CCN(CCCCNC(=O)c3ccc(-c4ccc(Cl)cc4)c(OCC(N)=O)c3)CC2)ccc2c1CCCC2` has % Inhibition at or above 30%?
0 (no)

For this compound, is measured % Inhibition 30% or higher? `O=C(Nc1ccc(-c2nc3ccccc3[nH]2)cc1)c1ccc(S(=O)(=O)N2CCc3ccccc32)cc1`
0 (no)

# check: % Inhibition of `C=Cc1ccccc1C1(O)CCN(CCCCNC(=O)c2ccc(-c3ccc(C#N)cc3)cc2)CC1` is greater than or equal to 30%
0 (no)
